- tgt: CK2α (casein kinase-2 catalytic subunit) (Homo sapiens, UniProt P68400)
- Sequence (P68400 whole entry): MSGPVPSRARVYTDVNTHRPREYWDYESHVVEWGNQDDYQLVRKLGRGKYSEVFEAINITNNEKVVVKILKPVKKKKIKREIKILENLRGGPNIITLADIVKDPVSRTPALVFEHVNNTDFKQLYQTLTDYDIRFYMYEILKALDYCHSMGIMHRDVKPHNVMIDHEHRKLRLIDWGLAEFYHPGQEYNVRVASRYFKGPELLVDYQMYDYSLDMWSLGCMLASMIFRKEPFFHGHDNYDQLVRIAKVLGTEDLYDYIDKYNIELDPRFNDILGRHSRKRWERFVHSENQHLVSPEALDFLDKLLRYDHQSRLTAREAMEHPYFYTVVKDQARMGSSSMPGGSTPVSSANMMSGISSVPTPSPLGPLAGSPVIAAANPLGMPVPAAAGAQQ
- protocol details: competition of [3H]IP6 radioligand binding to purified recombinant GST-CK2α
pIC50: −log10 of the molar value.
test readout: pIC50

Query: Quick one: pIC50 for "O=P(O)(O)O[C@H]1[C@@H](OP(=O)(O)O)[C@H](OP(=O)(O)O)[C@@H](OP(=O)(O)OP(=O)(O)O)[C@H](OP(=O)(O)O)[C@H]1OP(=O)(O)O" ?
Response: ~6.40

----------
- tgt: CK2α (casein kinase-2 catalytic subunit) (Homo sapiens)
- Format: binding
test readout: pIC50
Kindly note that pIC50 refers to -log10 of the concentration in mol/L and answer with the value alone.

Query: For "O=P(O)(O)O[C@H]1[C@H](OP(=O)(O)O)[C@@H](OP(=O)(O)O)[C@H](OP(=O)(O)O)[C@@H](OP(=O)(O)O)[C@H]1OP(=O)(O)O" , what is its reported pIC50?
Response: 4.85
